Hey, just so you know, these numbers are from PubChem BioAssay (NCI).

- ASSAY PROCEDURE: NCI Yeast Anticancer Drug Screen. Data for the sgs1 mgt1 strain (AID 161);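 also: 0% = growth of cultures given vehicle only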
- REPORTED CONDITIONS: S. cerevisiae sgs1 mgt1 strain, at 50.0 µM, stronger effect = higher value
This is part of a sample that, as a whole, favours compounds with a hit. Of some 79,000 tested, about 15% had one in any assay.
Given measured growth inhibition, output MET if it is greater than or equal to 20% and NOT MET if not.

{"columns": ["COMPOUND", "CLASS NAME"],
 "data": [
  ["[CH3][Sn]1([CH3])[c]2ccccc2Oc2cccc[c]21", "NOT MET"],
  ["CC(C)(C)c1ccc(O)cc1", "NOT MET"],
  ["O.O.O=C(O)CC(=O)O.[NH-]C1CCCCC1[NH-].[Pt+2] (configuration not stated)", "NOT MET"],
  ["C=Cc1cc(OC)c2c(c1)c(=O)oc1c2cc(OC)c2c(O)ccc(C3OC(C(C)O)C(O)C3O)c21 (configuration not stated)", "MET"],
  ["Cc1ccc2c(C)c3ccc4ccccc4c3c[n+]2c1", "MET"],
  ["COc1cc(C2c3cc4c(cc3OC(NCCO)C2C)OCO4)cc(OC)c1O (configuration not stated)", "NOT MET"],
  ["O=C1C=C(N2CC2)C(=O)C(N2CC2)=C1N1CC1", "MET"],
  ["CNCC(=O)c1ccc(O)c(O)c1", "NOT MET"],
  ["O=[N+]([O-])c1ccc([N+](=O)[O-])c2nsnc12", "MET"],
  ["COC(=O)C1c2c(C)cc3n2C(C=CC3)C1C(=O)OC (configuration not stated)", "NOT MET"],
  ["CCCC[As](=O)(O)C(C)C", "NOT MET"],
  ["O=C=Nc1ccccc1Cl", "NOT MET"],
  ["COC(=O)C1=C(C)N2[C@H](C(=O)O)CO[C@@]2(C)[C@H](C(=O)OC)[C@H]1c1cccc([N+](=O)[O-])c1", "MET"],
  ["CCCCOc1ccc([As](=O)(O)O)cc1", "NOT MET"],
  ["O=C(Oc1ccc(S(=O)(=O)F)cc1Cl)c1ccc([N+](=O)[O-])cc1", "MET"],
  ["CC(=O)c1ccc(NC(O)C(Cl)(Cl)Cl)cc1 (configuration not stated)", "NOT MET"],
  ["Cc1[nH]cc2c1C(c1ccccc1F)=NCC(=O)N2", "NOT MET"],
  ["CCOP(=O)(OCC)Oc1ccc([N+](=O)[O-])c(CC)c1", "NOT MET"],
  ["C/C(=N\\NC(N)=O)C(CN(C)C)C(c1ccccc1)c1c(O)c2ccccc2oc1=O (configuration not stated)", "NOT MET"],
  ["COC(CN1CCOCCOCCOCC1)CN1CCOCCOCCOCC1", "NOT MET"],
  ["CO/C=C/c1ccc2c(c1)OCO2", "NOT MET"],
  ["CSCCC(N)P(C)(=O)O (configuration not stated)", "NOT MET"],
  ["CO/C1=C\\C(C)=C\\C(C)C(O)C(C)C/C(C)=C/C=C/C(OC)C(C(C)C(O)C(C)C2(O)CC(O)C(C)C(C(C)C)O2)OC1=O (configuration not stated)", "MET"],
  ["NNc1c(C(N)=O)c2c(N)ncnc2n1C1OC(CO)C(O)C1O (configuration not stated)", "NOT MET"],
  ["CCOS(=O)OCC", "NOT MET"],
  ["COc1cc2c(c3c[n+](C)c4c5cc6c(cc5ccc4c13)OCO6)OCO2", "MET"],
  ["COC1OC(CO)C(O)C(O)[CH]1[Hg][Cl] (configuration not stated)", "MET"],
  ["O=S1(=O)c2ccccc2-c2ccccc21", "NOT MET"],
  ["O=C(CC(=O)C(F)(F)F)c1cccs1.O=C(CC(=O)C(F)(F)F)c1cccs1.O=C(CC(=O)C(F)(F)F)c1cccs1.[Eu]", "MET"],
  ["Cc1ccc(N=P(c2ccccc2)(c2ccccc2)c2ccccc2)cc1.[Br][Hg][Br]", "MET"],
  ["C=CCc1cc(-c2cc(CC=C)c(O)c(CN(CCCl)CCCl)c2)cc(CN(CCCl)CCCl)c1O", "MET"],
  ["CC1=CC(=O)C=CC1=Nc1ccc(N(CCCl)CCCl)cc1", "NOT MET"],
  ["O=C1C(=O)c2ccccc2C(O)=C1CN(CCCl)CCCl", "MET"],
  ["CC(=O)OC1CCC2(C)C3CCC4(C)C(Oc5ccccc5)CCC4C3CC(Br)C2(O)C1 (configuration not stated)", "NOT MET"],
  ["Cc1cccc(C=NCCOCCOCCN=Cc2cccc(C)c2O)c1O.[Ni]", "NOT MET"],
  ["O=S(O)(O)=S.[Co+3].[NH-]CC[NH-].[NH-]CC[NH-].[NH2-].[NH2-]", "NOT MET"],
  ["O.[Co].[NH2-].[NH2-].[NH2-].[NH2-].[NH2-]", "MET"],
  ["O=C(c1ccc([N+](=O)[O-])cc1)C1NC1c1ccccc1 (configuration not stated)", "MET"],
  ["NCCCP(c1ccccc1)c1ccccc1", "NOT MET"],
  ["CC(=O)C(CN1CCOCC1)C(c1ccccc1)c1c(O)c2ccccc2oc1=O (configuration not stated)", "NOT MET"],
  ["Cc1cc(C=C2C(=O)NC(=S)NC2=O)c(C)n1-c1ccccc1", "NOT MET"],
  ["CC1(C)N=C(c2ccccc2)C2(c3ccccc3)N1C2(C)C (configuration not stated)", "NOT MET"]
]}

---

- ASSAY PROCEDURE: NCI Yeast Anticancer Drug Screen. Data for the mec2-1 strain (AID 157)
- REPORTED CONDITIONS: S. cerevisiae mec2-1 strain, at 50.0 µM, stronger effect = higher value
The panel holds about 79,000 compounds, 15% with a hit somewhere; the sample as a whole holds those more often.

{"columns": ["COMPOUND", "UNIT OF MEASUREMENT", "growth inhibition"],
 "data": [
  ["CC(C)OC(=O)Nc1cccc(Cl)c1", "%", 1.75],
  ["C#CCOC(C(=O)OC1CCN(C)CC1)(c1ccccc1)c1ccccc1", "%", -11.8],
  ["NC(=S)N=C(N)N", "%", -3.55],
  ["O=C(O)C1C(C(=O)O)C2(Cl)C(Cl)=C(Cl)C1(Cl)C2(Cl)Cl.[Cd] (stereo not given)", "%", 13.9],
  ["O=C1CCCC1Cl (stereo not given)", "%", 82.6],
  ["CCOC(=O)/C(=C/c1ccc[nH]1)P(=O)(OCC)OCC", "%", -26.1],
  ["ClCC1CCN(CCc2ccccc2)CC1", "%", 13.8],
  ["CC1=CC(C)C/C=C/C2C3OC3(C)C(C)C3C(Cc4c[nH]c5ccccc45)NC(=O)C23C(=O)C=CC(=O)C1O (stereo not given)", "%", 92.5],
  ["CC(N)CCc1ccccc1 (stereo not given)", "%", -19.9],
  ["CC1(C)C2CC[C@@]1(C)C(=O)C2Br (stereo not given in full)", "%", 25.6]
]}

---

- ASSAY PROCEDURE: NCI Yeast Anticancer Drug Screen. Data for the mlh1 rad18 strain (AID 175)
- REPORTED CONDITIONS: S. cerevisiae mlh1 rad18 strain growth inhibition; at 50.0 µM; stronger effect = higher value
About 79,000 compounds went through this panel and 15% of them were active in at least one assay; those are over-represented in the sample as a whole.
Listing of recorded growth inhibition by entry.
REPORTED PROPERTY: growth inhibition (%)

{"columns": ["COMPOUND", "RESULT NUMBER"],
 "data": [
  ["O=C(c1ccccc1)c1c(CC(O)c2cccnc2)n(C(=O)c2ccccc2)c2ccccc12 (centres undefined)", 91],
  ["O=C(O)CN1CCN(CC(=O)O)CC(=O)[O][Hg][O]C(=O)C1", 99.2],
  ["CCN1C[C@]2(COC)[C@H](O)C[C@H](OC)[C@]34C1[C@H]([C@H](OC)[C@H]23)[C@]1(OC(C)=O)[C@H]2[C@@H](OC(=O)c3ccccc3)[C@](O)(C[C@H]24)[C@@H](OC)[C@@H]1O", -69.3],
  ["CNC(=O)Oc1ccccc1N", -5.2],
  ["CCOP(=O)(OCC)/C(C#N)=C/c1ncc[nH]1", -55.4],
  ["C=CCN(CC=C)C1CCOC(OC)C1O (centres undefined)", -14.2],
  ["[CH3][Sb]([CH3])[S]C1OC(CO)C(O)C(O)C1O (centres undefined)", -17.8],
  ["O=[N+]([O-])c1ccc([N+](=O)[O-])c2ccccc12", 22.8],
  ["CCCCCCC(=O)[O][Hg][c]1ccccc1", 99.7],
  ["CN1CCc2c([nH]c3ccccc23)C1", -45.1],
  ["CCN1CCC(O)(c2ccc(Cl)cc2)C(C(=O)c2ccc(Cl)cc2)C1 (centres undefined)", 98.5],
  ["CCCCN(CCCC)CC(O)c1ccc(Cl)c(Cl)c1 (centres undefined)", 7.75],
  ["CCCCOP(=O)(OCCCC)OC(C)C(C)=O (centres undefined)", -2.05],
  ["CCC[CH2][Sn]([CH2]CCC)([CH2]CCC)[CH2]CC[N+](C)(CCO)CCO.CS(=O)(=O)[O-]", 99.2]
]}
